Recorded measurements of Activity, one per entry
- assayText: Toxicity in mouse assessed as motor coordination impairment by measuring number of falls from rotarod at 50 mg/kg, ip measured after 30 mins by rotarod test
- Assay type: organism-based
- runParameters: in vivo, 0.5 h
readoutType: Activity

>>> obsvalue("Cc1cccc(C)c1OCC(N)C(C)C.Cl (centres undefined)")
3
>>> obsvalue("Cc1cccc(C)c1OCC(C)N.Cl (centres undefined) [MEXILETINE HYDROCHLORIDE]")
3.8
>>> obsvalue("Cc1cccc(C)c1OCC(N)Cc1ccccc1.Cl (centres undefined)")
4.4
>>> obsvalue("Cc1cccc(C)c1OCC(N)C(C)(C)C.Cl (centres undefined)")
3.1

---

Recorded measurements of Activity, one per entry
- assayText: Toxicity in mouse assessed as motor coordination impairment by measuring number of falls from rotarod at 25 mg/kg, ip measured after 30 mins by rotarod test
- Type: organism-based
- runParameters: in vivo, 0.5 h
readoutType: Activity

>>> obsvalue("Cc1cccc(C)c1OCC(N)Cc1ccccc1.Cl (centres undefined)")
2.9
>>> obsvalue("Cc1cccc(C)c1OCC(C)N.Cl (centres undefined) [MEXILETINE HYDROCHLORIDE]")
1.3
>>> obsvalue("Cc1cccc(C)c1OCC(N)C(C)C.Cl (centres undefined)")
2.6
>>> obsvalue("Cc1cccc(C)c1OCC(N)C(C)(C)C.Cl (centres undefined)")
2.7

---

Recorded measurements of Activity, one per entry
- assayText: Toxicity in mouse assessed as motor coordination impairment by measuring number of falls from rotarod at 25 mg/kg, ip measured after 45 mins by rotarod test
- Type: organism-based
- runParameters: in vivo
readoutType: Activity

>>> obsvalue("Cc1cccc(C)c1OCC(N)C(C)(C)C.Cl (centres undefined)")
1.7
>>> obsvalue("Cc1cccc(C)c1OCC(N)C(C)C.Cl (centres undefined)")
2.2
>>> obsvalue("Cc1cccc(C)c1OCC(N)Cc1ccccc1.Cl (centres undefined)")
1.9
>>> obsvalue("Cc1cccc(C)c1OCC(C)N.Cl (centres undefined) [MEXILETINE HYDROCHLORIDE]")
0.8

---

- assayText: Toxicity in mouse assessed as motor coordination impairment by measuring number of falls from rotarod at 50 mg/kg, ip measured after 45 mins by rotarod test
- Assay type: organism-based
- runParameters: in vivo
readoutType: Activity

>>> obsvalue("Cc1cccc(C)c1OCC(N)C(C)(C)C.Cl (centres undefined)")
1.8
>>> obsvalue("Cc1cccc(C)c1OCC(C)N.Cl (centres undefined) [MEXILETINE HYDROCHLORIDE]")
3.5
>>> obsvalue("Cc1cccc(C)c1OCC(N)C(C)C.Cl (centres undefined)")
2.1
>>> obsvalue("Cc1cccc(C)c1OCC(N)Cc1ccccc1.Cl (centres undefined)")
3.5

---

Recorded measurements of inhibition at 100 µM, one per entry
- Tested on: Aorta
- assayText: Inhibition of calcium-induced contraction in K+-depolarized guinea pig aortic strips at 1 x 10^-4 M relative to control
- Format: tissue-based
- runParameters: Cavia porcellus, dose 1 10^-4M
readoutType: inhibition at 100 µM (%)

>>> obsvalue("Cc1cccc(C)c1OCC(N)C(C)(C)C.Cl (centres undefined)")
38
>>> obsvalue("Cc1cccc(C)c1OCC(N)Cc1ccccc1.Cl (centres undefined)")
33
>>> obsvalue("Cc1cccc(C)c1OCC(N)C(C)C.Cl (centres undefined)")
11
>>> obsvalue("Cc1cccc(C)c1OCC(C)N.Cl (centres undefined) [MEXILETINE HYDROCHLORIDE]")
5
